Values compiled from the supplement of paper PMC11208160.

# assay-details: recombinant barcode read abundance after kanamycin selection (control-corrected) (log10(CPM+1)); higher = more efficient recombination; sequences stand for … in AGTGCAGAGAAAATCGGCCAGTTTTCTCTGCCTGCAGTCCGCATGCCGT…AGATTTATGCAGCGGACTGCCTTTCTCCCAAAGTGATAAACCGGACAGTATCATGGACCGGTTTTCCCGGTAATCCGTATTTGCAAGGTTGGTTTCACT; site = the 11-nt target
# recombinant barcode read abundance (log10) >= 0.8 gives fulfilled, anything below gives not fulfilled

* TCCTTAGCTTGGGTTCTAACCTGTTGCCG (site TCCTTAGCTCG) | not fulfilled
* ACCTGGGCTTGGGTTCTAACCTGTTGCCT (site ACCTGGGCTAG) | not fulfilled
* CCGCCCGCTTGGGTTCTAACCTGTTGCCT (site CCGCCTGCTAG) | not fulfilled
* TCGAGTCCTTGGGTTCTAACCTGTTGCCT (site TCGAGTACTAG) | not fulfilled
* GACTGCCCTTGGGTTCTAACCTGTTGCGG (site GACTGCCCTCC) | fulfilled

* * *

# assay-details: recombinant UMI read abundance after kanamycin selection (control-corrected) (log10(CPM+1)); higher = more efficient recombination; extreme values may be limits of the assay; sequences stand for … in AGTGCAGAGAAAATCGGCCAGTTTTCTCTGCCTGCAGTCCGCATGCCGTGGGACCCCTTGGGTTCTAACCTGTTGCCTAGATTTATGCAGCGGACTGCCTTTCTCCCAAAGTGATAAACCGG…AGGTTGGTTTCACT; site = the 11-nt donor
outcome-measure: recombinant UMI read abundance (log10)

* ACAGTATCATGGACCGGTTTTCCCGGTAATCCGTATTTGCA (site ACAGTAGCTTA) | 0.00334
* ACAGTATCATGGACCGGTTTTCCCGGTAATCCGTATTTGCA (site ACATTACCTTG) | 0
* CAGTCGACATGGACCGGTTTTCCCGGTAATCCGTATTTGGT (site CAGTCGACTTC) | 0.56
* AGAAAGACATGGACCGGTTTTCCCGGTAATCCGTATTTGCA (site AGGAAGACTTG) | 0.932
* AAGTGTACATGGACCGGTTTTCCCGGTAATCCGTATTTGTG (site AAGTGTACTCA) | 0.962
* TTGGTGGCATGGACCGGTTTTCCCGGTAATCCGTATTTGGC (site TTGGTGGCTGC) | 1.84
* AGCCTTTCATGGACCGGTTTTCCCGGTAATCCGTATTTGAC (site ATCCTTTCTGT) | 0
* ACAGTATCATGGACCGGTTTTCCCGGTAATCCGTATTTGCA (site ACAGCTTCTTG) | 0
* AGCTACGCATGGACCGGTTTTCCCGGTAATCCGTATTTGGG (site AGCTACGCTCC) | 0.0157

* * *

# assay-details: recombinant UMI read abundance after kanamycin selection (control-corrected) (log10(CPM+1)); higher = more efficient recombination; extreme values may be limits of the assay; sequences stand for … in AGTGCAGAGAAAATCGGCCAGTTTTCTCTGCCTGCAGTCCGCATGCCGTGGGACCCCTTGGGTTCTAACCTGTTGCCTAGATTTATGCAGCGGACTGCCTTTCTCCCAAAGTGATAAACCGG…AGGTTGGTTTCACT; site = the 11-nt donor
# recombinant UMI read abundance (log10) >= 0.4 gives Y, anything below gives N

- TGCTAGCCATGGACCGGTTTTCCCGGTAATCCGTATTTGGT (site TGCTAGCCTAC): N
- ACACGAACATGGACCGGTTTTCCCGGTAATCCGTATTTGTC (site ATACGAACTGA): N
- TGCAAGGCATGGACCGGTTTTCCCGGTAATCCGTATTTGGT (site TGCAAGGCTAC): Y
- CGCCAGACATGGACCGGTTTTCCCGGTAATCCGTATTTGCC (site CGCCAGACTGG): Y
- CTACTAACATGGACCGGTTTTCCCGGTAATCCGTATTTGGA (site CTATTAACTTC): Y
